- Target or system: P2Y purinoceptor 12 (Homo sapiens, UniProt Q9H244)
- Sequence (Q9H244 whole entry): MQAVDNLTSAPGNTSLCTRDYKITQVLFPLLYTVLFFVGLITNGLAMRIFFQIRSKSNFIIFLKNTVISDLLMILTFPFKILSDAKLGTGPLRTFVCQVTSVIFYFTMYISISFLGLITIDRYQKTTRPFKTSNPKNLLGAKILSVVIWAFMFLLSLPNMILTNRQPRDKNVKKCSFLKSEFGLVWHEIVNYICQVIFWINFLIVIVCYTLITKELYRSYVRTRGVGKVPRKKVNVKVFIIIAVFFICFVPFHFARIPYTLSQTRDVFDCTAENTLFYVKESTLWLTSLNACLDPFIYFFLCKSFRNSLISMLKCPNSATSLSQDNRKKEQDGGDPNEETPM
- Measurement protocol: Displacement of [33P]ADP from human recombinant P2Y12 receptor expressed in CHO cells
pKi: −log10 of the molar value.
Label no if pKi falls below 8; label yes in every other case.

CCCCOC(=O)N1CCN(C(=O)[C@H](CCC(=O)O)NC(=O)c2cc(OCCO)cc(-c3ccccc3)n2)CC1: no
O=C(O)CC[C@H](NC(=O)c1cccc(-c2ccccc2)n1)C(=O)N1CCN(C(=O)OCC2CCC2)CC1: no
CCCCCCOC(=O)N1CCN(C(=O)[C@H](CCC(=O)O)NC(=O)c2cc(N3CCC(N4CCCC4)CC3)cc(-c3ccccc3)n2)CC1: yes
CCCCCOC(=O)N1CCN(C(=O)[C@H](CCC(=O)O)NC(=O)c2cc(C(=O)N3CCN(C(C)=O)CC3)cc(-c3ccccc3)n2)CC1: yes
CCCCCN1CCN(C(=O)[C@H](CCC(=O)O)NC(=O)c2cccc(-c3ccccc3)n2)CC1: no

====

- Measurement protocol: Antiplatelet aggregation activity against adenosine diphosphate-induced human platelet rich plasma assessed as inhibition of platelet aggregation by turbidimetric method
- Format: functional
- Experimental context: Homo sapiens, Platelet, Plasma
Would you mind classing the entries by IC50? Ranges: I: < 2 µM; II: ≥ 2 µM and < 8 µM; III: ≥ 8 µM

CCCCCOC(=O)N1CCN(C(=O)[C@H](CCC(=O)O)NC(=O)c2cc(OCC3CCN(C)CC3)cc(-c3ccccc3)n2)CC1: I
CCCCCCNC(=O)N1CCN(C(=O)[C@H](CCC(=O)O)NC(=O)c2cccc(-c3ccccc3)n2)CC1: III
CCCCOC(=O)N1CCN(C(=O)[C@H](CCC(=O)O)NC(=O)c2cc(OCCCO)cc(-c3ccccc3)n2)CC1: II
CCOC(=O)N1CCN(C(=O)[C@H](CCC(=O)O)NC(=O)c2cc(NC)cc(-c3ccccc3)n2)CC1: III
CCCCCOC(=O)N1CCN(C(=O)[C@H](CCC(=O)O)NC(=O)c2cc(C(=O)N(C)CCCC)cc(-c3ccccc3)n2)CC1: I
CCCCCOC(=O)N1CCN(C(=O)[C@H](CCC(=O)O)NC(=O)c2cc(OC3CCNCC3)cc(-c3ccccc3)n2)CC1: I
CCCCCOC(=O)N1CCN(C(=O)[C@H](CCC(=O)O)NC(=O)c2cc(NC(=O)COC)cc(-c3ccccc3)n2)CC1: III
CCCCCCOC(=O)N1CCN(C(=O)[C@H](CCC(=O)O)NC(=O)c2cc(OC3CCNCC3)cc(-c3ccccc3)n2)CC1: II
CCCCCOC(=O)N1CCN(C(=O)[C@H](CCC(=O)O)NC(=O)c2cc(CCC(=O)N3CCOCC3)cc(-c3ccccc3)n2)CC1: II
CCOC(=O)N1CCN(C(=O)[C@H](CCC(=O)O)NC(=O)c2cc(OCCCCO)cc(-c3ccccc3)n2)CC1: III
CCCCCOC(=O)N1CCN(C(=O)[C@H](CCC(=O)O)NC(=O)c2cc(C(=O)N3CCN(C(C)=O)CC3)cc(-c3ccccc3)n2)CC1: I
CCCOc1cc(C(=O)N[C@@H](CCC(=O)O)C(=O)N2CCN(C(=O)OCC)CC2)nc(-c2ccccc2)c1: III
CCCCCCCCOC(=O)N1CCN(C(=O)[C@H](CCC(=O)O)NC(=O)c2cccc(-c3ccccc3)n2)CC1: III
O=C(O)CC[C@H](NC(=O)c1cccc(-c2ccccc2)n1)C(=O)N1CCN(C(=O)OCCC2CC2)CC1: III
CN(C)CC(=O)N1CCN(C(=O)[C@H](CCC(=O)O)NC(=O)c2cccc(-c3ccccc3)n2)CC1: III
